Tested on: SKOV3 ovarian cancer cells
METHOD_NOTES: Inherent cytotoxicity (dark toxicity) in SKOV3 cells (AlamarBlue viability)
Type: cell-based, Human
PROTOCOL_CONDITIONS: SKOV3; 24 hours incubation, no light activation
MEASURED_PARAMETER: Dark toxicity μM (IC10)

COMPOUND: CCC1=C(C)c2cc3[nH]c(cc4nc(c(C)c5[nH]c(cc1n2)c(C)c5C(=O)OC)[C@@H](CCC(=O)OC)[C@@H]4C)c(C)c3C(C)OCCCS[C@@H]1O[C@H](CO)[C@@H](O)[C@H](O)[C@H]1O (some centres unmarked)
EXPERIMENTAL_RESULT: 8.64 µM

COMPOUND: CCC1=C(C)c2cc3[nH]c(cc4nc(c(C)c5[nH]c(cc1n2)c(C)c5C(=O)OC)[C@@H](CCC(=O)OC)[C@@H]4C)c(C)c3COC(=O)NCCC[P+](c1ccccc1)(c1ccccc1)c1ccccc1
EXPERIMENTAL_RESULT: 3.046 µM

COMPOUND: CCC1=C(C)c2cc3[nH]c(cc4nc(c(C)c5[nH]c(cc1n2)c(C)c5C(=O)OC)[C@@H](CCC(=O)OC)[C@@H]4C)c(C)c3COC(=O)NCCCOCCC[P+](c1ccccc1)(c1ccccc1)c1ccccc1
EXPERIMENTAL_RESULT: 3.881 µM

COMPOUND: CCC1=C(C)c2cc3[nH]c(cc4nc(c(C)c5[nH]c(cc1n2)c(C)c5C(=O)OC)[C@@H](CCC(=O)OC)[C@@H]4C)c(C)c3COC(=O)NCC[P+](c1ccccc1)(c1ccccc1)c1ccccc1
EXPERIMENTAL_RESULT: 2.281 µM

COMPOUND: C=Cc1c(C)c2cc3nc(c(CC(=O)N[C@@H](CC(=O)O)C(=O)O)c4[nH]c(cc5nc(cc1[nH]2)C(C)=C5CC)c(C)c4C(=O)O)[C@@H](CCC(=O)O)[C@@H]3C [Talaporfin sodium, reference compound]
EXPERIMENTAL_RESULT: 11.10 µM
